# System: NCI/ADR-RES ovarian
# Protocol Description: NCI tumour cell line growth inhibition, 48 h
Measured Parameter: TGI (µM)

| Compound | Measured Parameter | Relation Qualifier | Data Value |
| --- | --- | --- | --- |
| COc1cc(N(CCC#N)CCC#N)ccc1/C(N=Nc1ccccc1)=N/NC(=O)c1cc(Br)ccc1O | TGI | > | 100 |
| COc1ccc(Cc2nccc3cc(OC)c(OC)cc23)cc1OC | TGI | > | 100 |
| Cc1nc2n(c(=O)c1CCN1CCC(c3noc4cc(F)ccc34)CC1)CCCC2 | TGI | > | 50 |
| COc1cc2c(cc1OCc1ccccc1)NC(=S)[C@@H]1CCCN1C2=S | TGI | > | 100 |
| O=C(Oc1ccccc1Cl)c1ccccc1Nc1ccnc(C(F)(F)F)c1 | TGI | = | 0.698 |
| CCCCCCCCCCCCOC1C(CNC(=O)C2OC3OC(C)(C)OC3C2NC(=O)CN2CCCCCC2)OC2OC(C)(C)OC21 (centres undefined) | TGI | = | 15.7 |
| C=CCNC1=C2C[C@@H](C)C[C@@H](OC)[C@H](OC(=O)CN)[C@H](C)/C=C(\C)[C@@H](OC(N)=O)[C@H](OC)/C=C\C=C(/C)C(=O)NC(=CC1=O)C2=O | TGI | > | 100 |
| N[C@@H]1CCCN(c2c(/C=C3\SC(=O)NC3=O)cccc2-c2ccccc2)C1 | TGI | = | 40.4 |
| CCOC(=O)Nc1ccc(-c2nc(-c3cccc(OC)c3)c(-c3ccnc(Br)c3)[nH]2)cc1 | TGI | = | 7.73 |
